METHOD SUMMARY: Toxicity liver stage against HepG2, at 10uM
Format: cell-based
Design: test concentration 10 uM, cell line HepG2-A16-CD81EGFP
CONDITION CONTEXT: human, HepG2-A16-CD81EGFP cells; read-out: INHIBITION
MEASUREMENT NAME: cytotoxicity at 10 µM (%)
Value expressed in %; do not type the unit.

Solved entries:
MOLECULE	MEASUREMENT NAME	MEAS VALUE
Cc1cnn(C2CCCN(C(=O)CN(C)c3cnccn3)C2)c1 (stereo unspecified)	cytotoxicity at 10 µM	-8.73
Cc1cc(N2CCN(C3CCOCC3)CC(C(=O)N(C)C)C2)ncn1 (stereo unspecified)	cytotoxicity at 10 µM	3.74
O=C(NC[C@H]1OC[C@@H]2CCN(C(=O)c3ccco3)C[C@@H]21)C1CC1	cytotoxicity at 10 µM	-6.2
CN(Cc1cccc(-n2cccn2)c1)c1cc(N2CCCC2)nc(N)n1	cytotoxicity at 10 µM	51.6
NCC1Cc2cc(-c3cnccn3)cc(Cl)c2O1 (stereo unspecified)	cytotoxicity at 10 µM	6.82
Cc1ccsc1[C@@H]1CCN(C(=O)CCC(=O)N2CCCCCC2)C[C@H]1O	cytotoxicity at 10 µM	-1.72
Cc1nn(C)c(C)c1OCC(=O)NCc1cccc(CO)c1	cytotoxicity at 10 µM	-7.73
CCCS(=O)(=O)N1CCN(c2cc(-n3ccnc3)nc(C)n2)CC1	cytotoxicity at 10 µM	-1.89

## Task Item under review: CN(CCC#N)C(=O)CN1CCCC1c1ccsc1 (stereo unspecified) . Reported cytotoxicity at 10 µM?
## Result -5.26
